- Tested on: HuP-T3 (Pancreatic Carcinoma)
- method-description: Bliss excess, mean over the matrix (fraction); higher = more synergy;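 note: after 72 h of two-drug dosing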
Each entry below carries its reported Bliss excess.
Keep it simple and answer with nothing but the number.

Consider the following illustrative entries.
compound="CN(C)CCCOc1ccc(-c2ccc3ncc4c(c3c2)n(C2CCOCC2)c(=O)n4C)cn1 [AZD0156] + O=C(c1cc(Cc2n[nH]c(=O)c3ccccc23)ccc1F)N1CCN(C(=O)C2CC2)CC1 [Olaparib] (first compound max 3 µM, partner max 3 µM)" readout="Bliss excess" reported_result=-0.0247
compound="CN(C)CCCOc1ccc(-c2ccc3ncc4c(c3c2)n(C2CCOCC2)c(=O)n4C)cn1 [AZD0156] + C=CCn1c(=O)c2cnc(Nc3ccc(N4CCN(C)CC4)cc3)nc2n1-c1cccc(C(C)(C)O)n1 [AZD1775] (first compound max 1 µM, partner max 1 µM)" readout="Bliss excess" reported_result=-0.051
compound="CN(C)CCCOc1ccc(-c2ccc3ncc4c(c3c2)n(C2CCOCC2)c(=O)n4C)cn1 [AZD0156] + CCN(CCO)CCCOc1ccc2c(Nc3cc(CC(=O)Nc4cccc(F)c4)[nH]n3)ncnc2c1 [AZD2811] (first compound max 1 µM, 7x7, partner max 1 µM)" readout="Bliss excess" reported_result=-0.0379

Which Bliss excess is reported with HuP-T3 (Pancreatic Carcinoma) for this entry: Cc1c2c(nn1C)CSCc1cc(n(C)n1)CSc1cc(c3ccccc3c1)OCCCc1c(C(=O)O)n(C)c3c-2c(Cl)ccc13 [AZD5991] + CC1(C)CCC(CN2CCN(c3ccc(C(=O)NS(=O)(=O)c4ccc(NCC5CCOCC5)c([N+](=O)[O-])c4)c(Oc4cnc5[nH]ccc5c4)c3)CC2)=C(c2ccc(Cl)cc2)C1 [Venetoclax] (first compound max 1 µM, 7x7, partner max 1 µM) ?
-0.0358

Which Bliss excess is reported with HuP-T3 (Pancreatic Carcinoma) for this entry: COc1nnc2ccc(N3CCC(c4ccc(OCCN5CCN(C)C(=O)[C@H]5C)cc4)CC3)nn12 [AZD5153] + CN(CC[C@H](CSC1=CC=CC=C1)NC2=C(C=C(C=C2)S(=O)(=O)NC(=O)C3=CC=C(C=C3)N4CCC(CC4)[C@H](C5=CC=CC=C5C6=CC=C(C=C6)Cl)O)S(=O)(=O)C(F)(F)F)CCO [AZD4320] (first compound max 1 µM, 7x7, partner max 1 µM) ?
0.0559

Which Bliss excess is reported with HuP-T3 (Pancreatic Carcinoma) for this entry: Cn1cnc2c(F)c(Nc3ccc(Br)cc3Cl)c(C(=O)NOCCO)cc21 [Selumetinib] + CCN(CCO)CCCOc1ccc2c(Nc3cc(CC(=O)Nc4cccc(F)c4)[nH]n3)ncnc2c1 [AZD2811] (first compound max 10 µM, 7x7, partner max 1 µM) ?
-0.0526

Which Bliss excess is reported with HuP-T3 (Pancreatic Carcinoma) for this entry: Cn1cnc2c(F)c(Nc3ccc(Br)cc3Cl)c(C(=O)NOCCO)cc21 [Selumetinib] + CC(C)n1c(=O)n(C)c2cnc3cc(F)c(-c4ccc(OCCCN5CCCCC5)nc4)cc3c21 [AZD1390] (first compound max 10 µM, 7x7, partner max 0.3 µM) ?
-0.0046

----------
Each entry below carries its reported Bliss excess.
- Tested on: EW-3 (Ewing's Sarcoma)
- method-description: Bliss excess, mean over the matrix (fraction); higher = more synergy
Keep it simple and answer with nothing but the number.

Consider the following illustrative entries.
compound="CN(CCO)CC[C@H](CSc1ccccc1)Nc1ccc(S(=O)(=O)NC(=O)c2ccc(N3CCC([C@@H](O)c4ccccc4-c4ccc(Cl)cc4)CC3)cc2)cc1S(=O)(=O)C(F)(F)F [AZD4320] + Nc1ccn([C@@H]2O[C@H](CO)[C@@H](O)C2(F)F)c(=O)n1 [Gemcitabine] (first compound max 1 µM, 7x7, partner max 0.3 µM)" readout="Bliss excess" reported_result=-0.0522
compound="COc1cccc(OCCCN)c1-c1cc(Nc2cnc(C#N)cn2)n[nH]1 [Prexasertib] + C=CCn1c(=O)c2cnc(Nc3ccc(N4CCN(C)CC4)cc3)nc2n1-c1cccc(C(C)(C)O)n1 [AZD1775] (first compound max 1 µM, partner max 1 µM)" readout="Bliss excess" reported_result=0.0286

Lab note: next compound to report on.
Could you tell me which Bliss excess is on file for CCN(CCO)CCCOc1ccc2c(Nc3cc(CC(=O)Nc4cccc(F)c4)[nH]n3)ncnc2c1 [AZD2811] + O=C(c1cc(Cc2n[nH]c(=O)c3ccccc23)ccc1F)N1CCN(C(=O)C2CC2)CC1 [Olaparib] (first compound max 1 µM, 7x7, partner max 10 µM) ?
-0.103

The values you see were collected from the supplement of paper PMC11061612.
